Provenance of the data: patent US20100173968A1

Recorded pKi, one value per entry.
Biological target: α4β2 nAChR Subtype (Rattus norvegicus, UniProt P09483+P12390)
Sequence (P09483 31-630): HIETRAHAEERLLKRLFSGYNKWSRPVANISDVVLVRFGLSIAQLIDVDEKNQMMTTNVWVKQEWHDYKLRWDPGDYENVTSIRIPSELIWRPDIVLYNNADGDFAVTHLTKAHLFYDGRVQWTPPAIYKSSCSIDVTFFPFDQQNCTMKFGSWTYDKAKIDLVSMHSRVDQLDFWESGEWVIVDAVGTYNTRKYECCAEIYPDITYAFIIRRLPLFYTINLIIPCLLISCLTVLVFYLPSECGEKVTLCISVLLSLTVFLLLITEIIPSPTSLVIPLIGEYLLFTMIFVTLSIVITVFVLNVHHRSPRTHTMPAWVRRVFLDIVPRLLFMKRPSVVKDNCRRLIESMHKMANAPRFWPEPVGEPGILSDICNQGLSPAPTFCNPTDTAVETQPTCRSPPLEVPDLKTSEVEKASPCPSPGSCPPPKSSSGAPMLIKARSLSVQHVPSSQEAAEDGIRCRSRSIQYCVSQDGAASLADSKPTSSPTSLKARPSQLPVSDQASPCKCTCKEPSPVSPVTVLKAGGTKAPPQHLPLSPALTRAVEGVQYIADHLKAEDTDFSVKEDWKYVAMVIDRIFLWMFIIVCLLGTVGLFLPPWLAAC
Sequence (P12390 25-500): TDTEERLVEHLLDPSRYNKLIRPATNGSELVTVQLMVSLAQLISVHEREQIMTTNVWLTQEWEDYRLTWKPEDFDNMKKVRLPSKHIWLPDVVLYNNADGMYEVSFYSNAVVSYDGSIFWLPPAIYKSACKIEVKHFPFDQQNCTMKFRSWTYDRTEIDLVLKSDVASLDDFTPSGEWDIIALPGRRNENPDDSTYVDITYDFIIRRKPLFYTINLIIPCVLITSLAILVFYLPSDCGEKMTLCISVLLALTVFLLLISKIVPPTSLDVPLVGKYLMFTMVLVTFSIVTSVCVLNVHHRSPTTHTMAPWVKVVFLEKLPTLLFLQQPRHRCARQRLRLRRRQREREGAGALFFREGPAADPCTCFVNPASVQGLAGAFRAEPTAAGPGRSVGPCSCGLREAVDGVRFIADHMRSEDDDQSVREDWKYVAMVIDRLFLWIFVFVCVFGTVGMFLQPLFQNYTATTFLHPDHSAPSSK
Test: Radioligand binding at α4β2 nAChR subtype, inhibition of [3H]nicotine binding, rat cerebral cortex membranes
Conditions: [3H]nicotine 5 nM, read-out: Rat α4β2 Ki
Protocol: The [^3H]nicotine (Specific Activity=81.5 Ci/mmol) was obtained from NEN Research Products. The binding of [^3H]nicotine was measured using a 3 h incubation at 4° C. […] Each filter was washed with ice-cold buffer (3×1 mL). Each concentration was replicated in triplicate.
pKi: −log10 of the molar value.
ENDPOINT LABEL: pKi

MOLECULE | OBSERVED
COC(=O)C1=CC2CNCC2C1.Cl (stereo not drawn) [hydrochloride] | 8.30
CC(C)(C)NC(=O)C1CC2CNCC(C2)C1 (stereo not drawn) | 7.96
O=C(C1C[C@H]2CNC[C@H]2C1)N1CC=CCC1 (mixture of isomers) | 7.33
